target: human LHRH receptor (Homo sapiens, UniProt P30968); test: functional assay for antagonistic activity, fos-Luc luciferase reporter gene, stimulation with 1 nM [D-Trp6] LHRH; format: cell-based; design: expressed in transfected cells; settings: cells stimulated with 1 nM [D-Trp6] LHRH for 6 h; bracket = number of independent experiments
Sequence (P30968 whole entry): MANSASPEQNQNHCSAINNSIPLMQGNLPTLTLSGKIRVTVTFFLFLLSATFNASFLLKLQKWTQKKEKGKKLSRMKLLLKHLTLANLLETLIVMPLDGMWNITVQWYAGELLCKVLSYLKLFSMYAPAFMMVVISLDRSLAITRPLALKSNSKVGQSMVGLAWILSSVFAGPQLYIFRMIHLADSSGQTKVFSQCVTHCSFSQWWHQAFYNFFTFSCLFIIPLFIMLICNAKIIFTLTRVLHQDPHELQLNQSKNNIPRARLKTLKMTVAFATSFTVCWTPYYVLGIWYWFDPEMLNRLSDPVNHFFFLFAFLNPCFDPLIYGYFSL
pIC50: −log10 of the molar value. Numbered stars: 1 amine (or outer) side, 2 acyl side, 3 side chain; on linkers, the order of the positions; unused ones are H or OH. Square brackets hold non-standard residues; d marks the D form. Side chains are listed from the residue outwards. Peptide text beside a SMILES is read from it. * marks the point of attachment. NH(4-amidinophenyl) = N=C(N)c1ccc(N*)cc1; dPhe(4-Cl) = N[C@H](Cc1ccc(Cl)cc1)C(=O)O; d2Nal = N[C@H](Cc1ccc2ccccc2c1)C(=O)O; d(hCit) = NC(=O)NCCCC[C@@H](N)C(=O)O; NMeY = CN[C@@H](Cc1ccc(O)cc1)C(=O)O; d3Pal = N[C@H](Cc1cccnc1)C(=O)O; Suc = O=C(CCC(=O)[*:2])[*:1]; Nle = CCCC[C@H](N)C(=O)O; Sar = CNCC(=O)O
Recorded pIC50 values for a group of molecules are listed next.

Molecule	pIC50
CCCC[C@H](NC(=O)[C@@H](CCCCNC(=O)CCC(=O)Nc1ccc(C(=N)N)cc1)NC(=O)[C@H](Cc1ccc(O)cc1)N(C)C(=O)[C@H](CO)NC(=O)[C@@H](Cc1cccnc1)NC(=O)[C@@H](Cc1ccc(Cl)cc1)NC(=O)[C@@H](Cc1ccc2ccccc2c1)NC(C)=O)C(=O)N[C@@H](CCCNC(=N)N)C(=O)N1CCC[C@H]1C(=O)N(C)CC(N)=O [Example 7] (Ac-[d2Nal][dPhe(4-Cl)][d3Pal]S[NMeY][dK]([Suc-NH(4-amidinophenyl)])[Nle]RP[Sar]-NH2)	8.89
CCCC[C@H](NC(=O)[C@@H](CCCCNC(N)=O)NC(=O)[C@H](Cc1ccc(O)cc1)N(C)C(=O)[C@H](CO)NC(=O)[C@@H](Cc1cccnc1)NC(=O)[C@@H](Cc1ccc(Cl)cc1)NC(=O)[C@@H](Cc1ccc2ccccc2c1)NC(C)=O)C(=O)N[C@@H](CCCNC(=N)N)C(=O)N1CCC[C@H]1C(=O)N[C@H](C)C(N)=O [Example 1] (Ac-[d2Nal][dPhe(4-Cl)][d3Pal]S[NMeY][d(hCit)][Nle]RP[dA]-NH2)	9.62

* * *

target: UniProt P30968; assay: functional assay for antagonistic activity, fos-Luc luciferase reporter gene, stimulation with 1 nM [D-Trp6] LHRH; details: cells stimulated with 1 nM [D-Trp6] LHRH for 6 h; bracket = number of independent experiments
Numbered stars: 1 amine (or outer) side, 2 acyl side, 3 side chain; on linkers, the order of the positions; unused ones are H or OH. Square brackets hold non-standard residues; d marks the D form. Side chains are listed from the residue outwards. Peptide text beside a SMILES is read from it. * marks the point of attachment. NH(4-amidinophenyl) = N=C(N)c1ccc(N*)cc1; dPhe(4-Cl) = N[C@H](Cc1ccc(Cl)cc1)C(=O)O; d2Nal = N[C@H](Cc1ccc2ccccc2c1)C(=O)O; Lys(iPr) = CC(C)NCCCC[C@H](N)C(=O)O; NMeY = CN[C@@H](Cc1ccc(O)cc1)C(=O)O; dCit = NC(=O)NCCC[C@@H](N)C(=O)O; d3Pal = N[C@H](Cc1cccnc1)C(=O)O; Suc = O=C(CCC(=O)[*:2])[*:1]; Nle = CCCC[C@H](N)C(=O)O
This section presents compounds with their documented IC50 values.

Compound	IC50, nM
CC(=O)N[C@H](Cc1ccc2ccccc2c1)C(=O)N[C@H](Cc1ccc(Cl)cc1)C(=O)N[C@H](Cc1cccnc1)C(=O)N[C@@H](CO)C(=O)N(C)[C@@H](Cc1ccc(O)cc1)C(=O)N[C@H](CCCCNC(=O)CCC(=O)Nc1ccc(C(=N)N)cc1)C(=O)N[C@@H](CC(C)C)C(=O)N[C@@H](CCCCNC(C)C)C(=O)N1CCC[C@H]1C(=O)N[C@H](C)C(N)=O [Example 2] (Ac-[d2Nal][dPhe(4-Cl)][d3Pal]S[NMeY][dK]([Suc-NH(4-amidinophenyl)])L[Lys(iPr)]P[dA]-NH2)	0.684
CC(=O)N[C@H](Cc1ccc2ccccc2c1)C(=O)N[C@H](Cc1ccc(Cl)cc1)C(=O)N[C@H](Cc1cccnc1)C(=O)N[C@@H](CO)C(=O)N[C@@H](Cc1ccc(O)cc1)C(=O)N[C@H](CCCNC(N)=O)C(=O)N[C@@H](CC(C)C)C(=O)N[C@@H](CCCNC(=N)N)C(=O)N1CCC[C@H]1C(=O)N[C@H](C)C(N)=O [cetrorelix, reference compound] (Ac-[d2Nal][dPhe(4-Cl)][d3Pal]SY[dCit]LRP[dA]-NH2)	0.198
CCCC[C@H](NC(=O)[C@@H](CCCCNC(=O)CCC(=O)Nc1ccc(C(=N)N)cc1)NC(=O)[C@H](Cc1ccc(O)cc1)N(C)C(=O)[C@H](CO)NC(=O)[C@@H](Cc1cccnc1)NC(=O)[C@@H](Cc1ccc(Cl)cc1)NC(=O)[C@@H](Cc1ccc2ccccc2c1)NC(C)=O)C(=O)N[C@@H](CCCNC(=N)N)C(=O)N1CCC[C@H]1C(=O)N[C@H](C)C(N)=O [Example 8] (Ac-[d2Nal][dPhe(4-Cl)][d3Pal]S[NMeY][dK]([Suc-NH(4-amidinophenyl)])[Nle]RP[dA]-NH2)	1.4
